- Test Target: Serine/threonine-protein kinase Nek9 (Homo sapiens) (UniProt Q8TD19);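 further: reported value is the mean percent inhibition of NEK9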
- Sequence (Q8TD19 whole entry): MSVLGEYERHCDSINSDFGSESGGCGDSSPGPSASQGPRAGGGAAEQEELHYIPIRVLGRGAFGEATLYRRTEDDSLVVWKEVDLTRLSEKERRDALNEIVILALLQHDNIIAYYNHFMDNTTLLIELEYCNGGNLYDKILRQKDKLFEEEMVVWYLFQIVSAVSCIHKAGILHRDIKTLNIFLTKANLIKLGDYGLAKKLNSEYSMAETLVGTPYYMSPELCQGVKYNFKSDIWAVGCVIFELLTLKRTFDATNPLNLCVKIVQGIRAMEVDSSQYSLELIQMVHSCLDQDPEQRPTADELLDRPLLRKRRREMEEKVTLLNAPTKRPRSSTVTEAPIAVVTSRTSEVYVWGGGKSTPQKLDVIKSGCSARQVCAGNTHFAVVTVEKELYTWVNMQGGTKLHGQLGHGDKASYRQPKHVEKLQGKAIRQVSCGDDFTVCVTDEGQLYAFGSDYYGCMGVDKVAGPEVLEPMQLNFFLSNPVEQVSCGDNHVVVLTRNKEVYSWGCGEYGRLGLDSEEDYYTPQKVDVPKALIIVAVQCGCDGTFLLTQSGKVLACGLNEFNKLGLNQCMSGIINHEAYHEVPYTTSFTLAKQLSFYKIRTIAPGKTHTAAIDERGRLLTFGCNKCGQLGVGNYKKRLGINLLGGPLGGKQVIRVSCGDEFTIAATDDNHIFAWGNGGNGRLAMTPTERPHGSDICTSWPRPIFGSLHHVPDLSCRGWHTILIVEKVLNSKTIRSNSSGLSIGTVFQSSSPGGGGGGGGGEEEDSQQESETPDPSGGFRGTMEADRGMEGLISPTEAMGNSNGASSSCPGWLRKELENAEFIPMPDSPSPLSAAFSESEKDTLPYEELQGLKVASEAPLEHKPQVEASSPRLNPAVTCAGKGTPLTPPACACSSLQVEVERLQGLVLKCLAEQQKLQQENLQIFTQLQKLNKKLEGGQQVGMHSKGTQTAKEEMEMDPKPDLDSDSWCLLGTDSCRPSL
- Condition Label: at 0.1 µM
Catalogue of compounds with associated inhibition
Write the number in % without appending the unit.

Examples from the recorded data:
1) O=C1Nc2ccccc2/C1=C/Nc1ccc(-n2cncn2)cc1 5.79
2) CN(C)CCCNc1nccc(-c2c(-c3ccc(F)cc3)nn3cc(C(F)(F)F)ccc23)n1 5.9
3) Cc1ccc(C(=O)NC(C)C)cc1-c1ccc(C(=O)NCC2CC2)cc1 3.16

Measured inhibition of C/C(Nc1ccc(S(N)(=O)=O)cc1)=C1/C(=O)Nc2ccccc21 : 2.83

Measured inhibition of NCc1ccc(-n2c(-c3nonc3N)nc3cnccc32)cc1 : 2.32

Measured inhibition of O=C1Nc2ccc(I)cc2C1=Cc1cc(Br)c(O)c(Br)c1 : 9.81

Measured inhibition of O=C(Nc1n[nH]c2nc(-c3ccc(O)cc3)c(Br)cc12)C1CC1 : 13.9

Measured inhibition of Cc1ccc(C(=O)NC2CCC2)cc1-c1ccc(C(=O)NCC2CC2)cc1 : 4.75

Measured inhibition of COc1ccc(C2=C(N3CCc4ccccc43)C(=O)NC2=O)cc1 : 11.3

Measured inhibition of CCc1nccc2c1nc(-c1nonc1N)n2CC : 0.19

* * *

Catalogue of compounds with associated inhibition
- Test Target: Serine/threonine-protein kinase PAK 1 (Homo sapiens);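 further: values are mean PAK1 inhibition from the GSK PKIS kinase inhibitor set screen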
- Condition Label: at 0.1 µM
Write the number in % without appending the unit.

Examples from the recorded data:
1. NS(=O)(=O)c1ccc(Nc2cc(-c3ccc(O)c(F)c3)n[nH]2)cc1 -5.59
2. CCc1nccc2c1nc(-c1nonc1N)n2CC 3.29
3. NC(=O)c1cc(-c2ccncc2)cc(-c2ccccc2)c1N 7.55
4. Cc1ccc(C(=O)NC(C)C)cc1-c1ccc(C(=O)NCC2CC2)cc1 -1.5
5. NS(=O)(=O)c1ccc(N/N=C2\C(=O)Nc3ccc(-c4cnco4)cc32)cc1 2.52

Measured inhibition of Fc1ccc(-c2ncn(CCCN3CCOCC3)c2-c2ccncc2)cc1 : 2.56

Measured inhibition of O=C(Nc1ccc(Oc2ccc3[nH]c(NC(=O)c4ccccc4)nc3c2)cc1)Nc1cc(C(F)(F)F)ccc1F : 5.49

* * *

- Test Target: Vascular endothelial growth factor receptor 3 (Homo sapiens) (UniProt P35916)
- Sequence (P35916 whole entry): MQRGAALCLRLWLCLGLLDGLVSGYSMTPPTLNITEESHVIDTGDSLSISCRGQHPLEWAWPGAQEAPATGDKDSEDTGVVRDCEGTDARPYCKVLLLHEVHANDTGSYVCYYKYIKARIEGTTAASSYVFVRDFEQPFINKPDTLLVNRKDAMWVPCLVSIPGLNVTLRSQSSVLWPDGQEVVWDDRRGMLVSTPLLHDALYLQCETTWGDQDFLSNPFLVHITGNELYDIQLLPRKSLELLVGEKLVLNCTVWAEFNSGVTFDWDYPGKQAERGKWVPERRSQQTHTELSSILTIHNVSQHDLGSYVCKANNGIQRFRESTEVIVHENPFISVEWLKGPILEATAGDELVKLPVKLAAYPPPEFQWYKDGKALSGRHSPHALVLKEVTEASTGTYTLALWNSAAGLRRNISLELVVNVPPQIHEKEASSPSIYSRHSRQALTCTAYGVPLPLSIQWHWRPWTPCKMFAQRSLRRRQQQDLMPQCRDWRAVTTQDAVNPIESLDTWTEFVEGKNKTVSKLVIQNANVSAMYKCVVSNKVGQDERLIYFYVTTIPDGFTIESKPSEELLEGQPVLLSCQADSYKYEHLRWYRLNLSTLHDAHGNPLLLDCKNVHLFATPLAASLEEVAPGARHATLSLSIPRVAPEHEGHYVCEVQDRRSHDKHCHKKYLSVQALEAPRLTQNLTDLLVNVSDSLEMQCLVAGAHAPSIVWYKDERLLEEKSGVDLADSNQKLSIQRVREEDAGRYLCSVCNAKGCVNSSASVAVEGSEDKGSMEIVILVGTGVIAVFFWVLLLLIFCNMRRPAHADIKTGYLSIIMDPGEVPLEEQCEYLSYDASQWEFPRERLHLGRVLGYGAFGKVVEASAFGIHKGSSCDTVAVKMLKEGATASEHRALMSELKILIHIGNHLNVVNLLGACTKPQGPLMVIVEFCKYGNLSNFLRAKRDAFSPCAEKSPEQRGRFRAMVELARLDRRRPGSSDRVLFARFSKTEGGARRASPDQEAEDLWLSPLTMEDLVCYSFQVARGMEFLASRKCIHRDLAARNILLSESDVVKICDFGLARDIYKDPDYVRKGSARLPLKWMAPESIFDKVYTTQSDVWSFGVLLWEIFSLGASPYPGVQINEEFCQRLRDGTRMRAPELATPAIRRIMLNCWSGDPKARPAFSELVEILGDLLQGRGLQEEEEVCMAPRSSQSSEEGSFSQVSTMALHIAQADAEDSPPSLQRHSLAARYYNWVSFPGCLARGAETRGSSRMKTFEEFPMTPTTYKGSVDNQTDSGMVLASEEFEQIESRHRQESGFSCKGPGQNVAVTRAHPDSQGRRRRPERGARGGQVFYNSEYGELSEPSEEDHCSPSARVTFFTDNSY
- Condition Label: at 0.1 µM
- Description: GSK_PKIS: FLT4 mean inhibition at 0.1 uM [Nanosyn]
Measurement Name: inhibition (%)
Write the number in % without appending the unit.

Compound	Test Target	Endpoint Unit	inhibition
COc1ccc2cc(-c3c(-c4ccncc4)nc(-c4ccc([S+](C)[O-])cc4C)n3C)ccc2c1 (stereo unspecified)	Vascular endothelial growth factor receptor 3 (Homo sapiens) (UniProt P35916)	%	2.68
COc1cc(Nc2ncc(-c3ccccc3)o2)cc(OC)c1OC	Vascular endothelial growth factor receptor 3 (Homo sapiens) (UniProt P35916)	%	7.69
Nc1nccc(-c2c(-c3ccc(F)cc3)ncn2C2CCC(O)CC2)n1 (stereo unspecified)	Vascular endothelial growth factor receptor 3 (Homo sapiens) (UniProt P35916)	%	1.39
NS(=O)(=O)c1ccc(Nc2cc(-c3ccc(O)c(F)c3)n[nH]2)cc1	Vascular endothelial growth factor receptor 3 (Homo sapiens) (UniProt P35916)	%	0.48
C#Cc1cccc(Nc2ncnc3ccc(OCCCCNCCS(C)(=O)=O)cc23)c1	Vascular endothelial growth factor receptor 3 (Homo sapiens) (UniProt P35916)	%	-5.89
CCS(=O)(=O)c1ccc(OC)c(Nc2ncc(-c3cccc(-c4ccccc4F)c3)o2)c1	Vascular endothelial growth factor receptor 3 (Homo sapiens) (UniProt P35916)	%	41
c1ccc(Oc2ccc(Nc3ncc(-c4ccccc4)o3)cc2)cc1	Vascular endothelial growth factor receptor 3 (Homo sapiens) (UniProt P35916)	%	3.08
O=C(Nc1n[nH]c2cc(-c3ccccc3)ccc12)C1CC1	Vascular endothelial growth factor receptor 3 (Homo sapiens) (UniProt P35916)	%	16.2

Here is the next item to consider.
Measured inhibition of O=C(Nc1n[nH]c2nc(-c3ccc(O)cc3)c(Br)cc12)C1CC1 : 18.3

* * *

- Test Target: Calcium/calmodulin-dependent protein kinase type II subunit alpha (Homo sapiens);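 further: reported values are averages (mean inhibition of CAMK2A)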
- Condition Label: at 0.1 µM
Measurement Name: inhibition (%)
Write the number in % without appending the unit.

1. COc1ccc2cc(-c3c(-c4ccncc4)nc(-c4ccc(S(C)(=O)=O)cc4C)n3C)ccc2c1 2.82

Measured inhibition of COc1cc2ncn(-c3cc(OCc4cccs4)c(C(N)=O)s3)c2cc1OC : 2.87

Measured inhibition of Cc1nnc(-c2ccc(C)c(-c3ccc(C(=O)NCc4ccc(Cl)cc4)cc3)c2)o1 : 2.6

Measured inhibition of Fc1ccc(-c2nc3n(c2-c2ccncc2)CCS3)cc1 : 3.63

Measured inhibition of COc1cc(C)c(N(C)C(=O)CN(C)C)cc1Nc1nc(Nc2cccc(F)c2C(N)=O)c2cc[nH]c2n1 : 3.48

* * *

- Test Target: Dual specificity tyrosine-phosphorylation-regulated kinase 2 (Homo sapiens) (UniProt Q92630);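 further: values are mean percent inhibition of DYRK2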
- Sequence (Q92630 whole entry): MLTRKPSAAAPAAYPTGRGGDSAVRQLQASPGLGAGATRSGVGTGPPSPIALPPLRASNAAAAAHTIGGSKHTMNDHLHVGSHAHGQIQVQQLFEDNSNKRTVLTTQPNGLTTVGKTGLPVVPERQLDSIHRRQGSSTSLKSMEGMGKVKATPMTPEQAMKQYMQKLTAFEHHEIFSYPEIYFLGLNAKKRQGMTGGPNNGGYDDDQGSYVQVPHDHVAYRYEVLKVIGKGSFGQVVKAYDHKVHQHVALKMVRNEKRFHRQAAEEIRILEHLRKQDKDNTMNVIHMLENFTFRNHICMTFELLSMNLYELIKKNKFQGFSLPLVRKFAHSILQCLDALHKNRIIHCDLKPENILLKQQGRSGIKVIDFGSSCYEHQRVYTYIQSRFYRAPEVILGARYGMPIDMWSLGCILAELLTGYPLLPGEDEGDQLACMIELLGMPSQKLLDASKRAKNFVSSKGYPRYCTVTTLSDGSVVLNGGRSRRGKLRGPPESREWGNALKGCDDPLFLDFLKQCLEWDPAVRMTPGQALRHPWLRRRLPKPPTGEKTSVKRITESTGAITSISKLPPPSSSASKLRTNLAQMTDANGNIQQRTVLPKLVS
- Condition Label: at 0.1 µM
Measurement Name: inhibition (%)
Write the number in % without appending the unit.

Examples from the recorded data:
1) CCc1ccc(Oc2nccc(-c3c(-c4ccc(F)cc4)ncn3C3CCNCC3)n2)cc1 4.87
2) Fc1ccc(-c2ncn(CCCN3CCOCC3)c2-c2ccncc2)cc1 -0.03

Measured inhibition of COc1cc(N2CCN(C(C)C)CC2)ccc1Nc1nc(Nc2ccc(F)cc2C(=O)NC[C@@H](O)CO)c2cc[nH]c2n1 : 3.04

Measured inhibition of C[C@@H](Oc1cc(-n2cnc3ccc(OC4CCN(C)CC4)cc32)sc1C(N)=O)c1ccccc1Cl : 2.47

Measured inhibition of NC(=O)c1cc(-c2ccncc2)cc(-c2ccccc2)c1N : 3.61

Measured inhibition of Fc1ccc(-c2ncn(C3CCNCC3)c2-c2ccnc(Oc3ccc4c(c3)OCO4)n2)cc1 : 3.24

Measured inhibition of COc1cc(Nc2ncc3c(C)nc(-c4cccc(Oc5ccccc5)c4)n3n2)cc(OC)c1OC : 2.11

Measured inhibition of COc1cc(C)c(N(C)C(=O)CN(C)C)cc1Nc1nc(Nc2cccc(F)c2C(N)=O)c2cc[nH]c2n1 : 2.31

Measured inhibition of CN1CCN(CCCNc2nc3ccc(Oc4ccc(NC(=O)Nc5cc(C(F)(F)F)ccc5F)cc4)cc3[nH]2)CC1 : 0.8

* * *

- Test Target: Tyrosine-protein kinase ABL1 (Homo sapiens);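 further: reported values are mean percent inhibition of ABL1 kinase activity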
- Condition Label: at 1 µM
Catalogue of compounds with associated inhibition
Write the number in % without appending the unit.

Examples from the recorded data:
1) CN1CCN(CCCNc2nc3ccc(Oc4ccc(NC(=O)Nc5cc(C(F)(F)F)ccc5F)cc4)cc3[nH]2)CC1 13.6
2) CCS(=O)(=O)c1ccc(OC)c(Nc2ncc(-c3ccccc3Cl)o2)c1 29.3
3) CS(=O)(=O)CCNCc1ccc(-c2ccc3ncnc(Nc4ccc(OCc5ccccc5)c(Br)c4)c3c2)o1 2.83
4) CN(c1ccc(NC(=O)Nc2c(Cl)cccc2Cl)cc1)c1ccnc(Nc2cccc(CS(C)(=O)=O)c2)n1 53.1

Measured inhibition of O=C1NC(=O)C(c2cccc(Cl)c2)=C1Nc1ccc(Cl)c(C(=O)O)c1 : 5.5

* * *

- Test Target: Dual specificity tyrosine-phosphorylation-regulated kinase 1A (Homo sapiens)
- Condition Label: at 0.1 µM
- Description: GSK_PKIS: DYRK1A mean inhibition at 0.1 uM [Nanosyn]
Catalogue of compounds with associated inhibition
Write the number in % without appending the unit.

Examples from the recorded data:
1) CN(C)c1ccc2c(c1)/C(=C/Nc1ccc(S(N)(=O)=O)cc1)C(=O)N2 7.43
2) COc1ccc(C2=C(N3CCc4ccccc43)C(=O)NC2=O)cc1 4.7
3) COc1ccc2ncn(-c3cc(O[C@H](C)c4ccccc4Cl)c(C(N)=O)s3)c2c1 -1.4
4) CS(=O)(=O)CCNCc1cc(-c2cc3c(Nc4ccc(OCc5cccc(F)c5)c(Cl)c4)ncnc3s2)cs1 2.31

Here is the next item to consider.
Measured inhibition of N#Cc1ccc(Oc2nccc(-c3c(-c4ccc(F)cc4)ncn3C3CCNCC3)n2)cc1 : 2.5

* * *

Catalogue of compounds with associated inhibition
- Test Target: Insulin receptor (Homo sapiens) (UniProt P06213);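 further: reported values are averages of replicate inhibition measurements against the insulin receptor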
- Sequence (P06213 28-758 limits assumed): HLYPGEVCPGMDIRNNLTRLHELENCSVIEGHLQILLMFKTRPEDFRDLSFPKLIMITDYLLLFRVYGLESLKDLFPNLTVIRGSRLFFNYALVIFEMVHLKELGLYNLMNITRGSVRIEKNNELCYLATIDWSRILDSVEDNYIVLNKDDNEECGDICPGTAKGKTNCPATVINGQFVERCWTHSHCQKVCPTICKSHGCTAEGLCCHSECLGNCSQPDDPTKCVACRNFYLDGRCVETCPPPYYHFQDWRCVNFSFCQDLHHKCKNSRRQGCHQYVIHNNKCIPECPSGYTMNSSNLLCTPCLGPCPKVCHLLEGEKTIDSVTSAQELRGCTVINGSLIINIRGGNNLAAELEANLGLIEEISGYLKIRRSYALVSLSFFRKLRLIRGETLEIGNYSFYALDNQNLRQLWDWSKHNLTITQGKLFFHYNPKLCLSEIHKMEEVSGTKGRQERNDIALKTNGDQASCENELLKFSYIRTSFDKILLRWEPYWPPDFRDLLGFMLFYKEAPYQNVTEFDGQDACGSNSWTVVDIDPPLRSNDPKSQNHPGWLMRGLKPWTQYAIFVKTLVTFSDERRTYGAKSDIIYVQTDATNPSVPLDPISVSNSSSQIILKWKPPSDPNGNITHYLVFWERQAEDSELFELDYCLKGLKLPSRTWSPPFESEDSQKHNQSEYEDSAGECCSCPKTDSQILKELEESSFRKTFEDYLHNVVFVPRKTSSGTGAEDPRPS
- Sequence (P06213 763-1382 limits assumed): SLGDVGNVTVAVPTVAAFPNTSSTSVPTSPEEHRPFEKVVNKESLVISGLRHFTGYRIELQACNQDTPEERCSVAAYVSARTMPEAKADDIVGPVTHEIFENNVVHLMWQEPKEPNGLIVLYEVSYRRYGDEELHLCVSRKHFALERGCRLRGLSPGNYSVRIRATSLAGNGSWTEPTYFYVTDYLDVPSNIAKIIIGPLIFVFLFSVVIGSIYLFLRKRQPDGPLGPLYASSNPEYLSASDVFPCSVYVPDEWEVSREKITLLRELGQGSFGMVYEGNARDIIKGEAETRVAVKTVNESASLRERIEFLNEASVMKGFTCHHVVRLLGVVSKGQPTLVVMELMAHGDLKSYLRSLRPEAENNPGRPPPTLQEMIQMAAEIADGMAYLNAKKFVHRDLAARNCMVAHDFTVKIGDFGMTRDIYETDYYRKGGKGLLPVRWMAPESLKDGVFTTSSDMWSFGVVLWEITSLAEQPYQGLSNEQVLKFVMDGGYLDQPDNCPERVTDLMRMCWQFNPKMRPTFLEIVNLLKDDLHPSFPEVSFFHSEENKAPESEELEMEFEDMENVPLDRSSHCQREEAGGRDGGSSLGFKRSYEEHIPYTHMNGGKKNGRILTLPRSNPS
- Condition Label: at 0.1 µM
Write the number in % without appending the unit.

Examples from the recorded data:
1. CCc1cccc(CC)c1/C=C/c1cncc(C(=O)NC)c1 1.7
2. C[C@@H](Oc1cc(-n2cnc3ccc(OC4CCN(C)CC4)cc32)sc1C(N)=O)c1ccccc1Cl 10.4
3. NC(=O)c1ccc(Oc2nccc(-c3c(-c4ccc(F)cc4)ncn3C3CCNCC3)n2)cc1 7.88

Measured inhibition of c1ccc(-c2n[nH]cc2-c2ccnc(-c3ccc(OCCN4CCOCC4)cc3)c2)nc1 : -2.85

Measured inhibition of COc1ccc2cc(-c3c(-c4ccncc4)nc(-c4ccc(S(C)(=O)=O)cc4C)n3C)ccc2c1 : 7.46

* * *

- Test Target: Serine/threonine-protein kinase 3 (Homo sapiens) (UniProt Q13188);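 further: reported value is the mean percent inhibition of MST2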
- Sequence (whole entry): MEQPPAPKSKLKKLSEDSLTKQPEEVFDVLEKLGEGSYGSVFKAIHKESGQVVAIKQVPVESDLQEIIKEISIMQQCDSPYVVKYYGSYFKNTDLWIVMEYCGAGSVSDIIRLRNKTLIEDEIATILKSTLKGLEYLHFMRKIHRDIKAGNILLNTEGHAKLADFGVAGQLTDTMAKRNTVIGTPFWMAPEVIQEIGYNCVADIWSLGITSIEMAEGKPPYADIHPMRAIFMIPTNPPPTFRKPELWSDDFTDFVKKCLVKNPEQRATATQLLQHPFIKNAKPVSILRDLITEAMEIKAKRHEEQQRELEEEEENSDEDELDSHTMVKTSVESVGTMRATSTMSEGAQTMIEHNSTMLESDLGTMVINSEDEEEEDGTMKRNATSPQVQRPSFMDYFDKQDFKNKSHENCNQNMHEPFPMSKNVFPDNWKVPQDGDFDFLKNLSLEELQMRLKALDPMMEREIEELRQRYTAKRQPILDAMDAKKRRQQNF
- Condition Label: at 0.1 µM
Catalogue of compounds with associated inhibition
Write the number in % without appending the unit.

Examples from the recorded data:
1. O=C(Nc1ccc(Oc2ccc3[nH]c(NC(=O)c4ccccc4)nc3c2)cc1)Nc1cc(C(F)(F)F)ccc1F 5.74
2. C[C@@H](Oc1cc(-n2cnc3ccc(OCC4CCN(C)CC4)cc32)sc1C(N)=O)c1ccccc1Cl 11.7

Measured inhibition of COc1ccc2cc(-c3c(-c4ccncc4)nc(-c4ccc(S(C)(=O)=O)cc4C)n3C)ccc2c1 : 4.72

Measured inhibition of NC(=O)Cc1ccccc1Oc1nccc(-c2c(-c3ccc(F)cc3)ncn2C2CCNCC2)n1 : 2.69

Measured inhibition of COC(=O)Nc1nc2ccc(Sc3ccc(NC(=O)Nc4cc(C(F)(F)F)ccc4F)cc3)cc2[nH]1 : 2.16

Measured inhibition of NC(=O)c1cc(-c2ccncc2)cc(-c2ccccc2)c1N : 3.96
